Test system: LC-2-ad
protocol-notes: relative viability (nuclei count vs DMSO), 5 days (fraction); higher = more cells survive
test-settings: first compound 0.08 µM
Recorded relative viability by entry
reported-endpoint: relative viability

molecule	target-entity	reported-value
Cc1cnc(-c2cnc(NCCNc3ccc(C#N)cn3)nc2-c2ccc(Cl)cc2Cl)[nH]1 + O=C(c1cc(Cc2n[nH]c(=O)c3ccccc23)ccc1F)N1CCN(C(=O)C2CC2)CC1 [Olaparib] (partner 8 µM)	LC-2-ad	0.657
O=c1[nH]c2ccccc2n1C1CCN(CCCC(c2ccc(F)cc2)c2ccc(F)cc2)CC1 [Pimozide] + C[C@@H](Oc1cc(-c2cnn(C3CCNCC3)c2)cnc1N)c1c(Cl)ccc(F)c1Cl [Crizotinib] (partner 1 µM)	LC-2-ad	0.474
Cc1cnc(-c2cnc(NCCNc3ccc(C#N)cn3)nc2-c2ccc(Cl)cc2Cl)[nH]1 + CS(=O)(=O)CCNCc1ccc(-c2ccc3ncnc(Nc4ccc(OCc5cccc(F)c5)c(Cl)c4)c3c2)o1 [Lapatinib] (partner 2 µM)	LC-2-ad	1.06
Cc1cnc(-c2cnc(NCCNc3ccc(C#N)cn3)nc2-c2ccc(Cl)cc2Cl)[nH]1 + C[C@]1(O)C[C@@H](c2nc(-c3ccc4ccc(-c5ccccc5)nc4c3)c3c(N)nccn32)C1 [Linsitinib] (partner 1 µM)	LC-2-ad	0.905
Cc1cnc(-c2cnc(NCCNc3ccc(C#N)cn3)nc2-c2ccc(Cl)cc2Cl)[nH]1 + COc1cc2c(Oc3ccc(NC(=O)C4(C(=O)Nc5ccc(F)cc5)CC4)cc3F)ccnc2cc1OCCCN1CCOCC1 [Foretinib] (partner 0.25 µM)	LC-2-ad	0.996
Cc1cnc(-c2cnc(NCCNc3ccc(C#N)cn3)nc2-c2ccc(Cl)cc2Cl)[nH]1 + CS(=O)(=O)N1CCN(Cc2cc3nc(-c4cccc5[nH]ncc45)nc(N4CCOCC4)c3s2)CC1 [Pictilisib] (partner 1 µM)	LC-2-ad	0.489

Data origin, for the record: the supplement of paper PMC10307832
